# PROTOCOL DETAILS: Inhibition of PKA at 10 uM by HTRF assay relative to control
RESULT TYPE: inhibition (%)

O=C(c1nc(SCc2ccc(Cl)cc2)n2ccccc12)N1CCN(c2ncnc3c2CN(Cc2ccccc2)CC3)CC1 | 0
COC(=O)C(CO)NC(=O)[C@@H]1CCCN1c1nccc(Oc2cccc(C)c2)n1 (some centres undefined) | 0

a: Cc1cccc(Oc2ccnc(N3CCN(C(=O)c4c(C)noc4C)CC3)n2)c1
b: COC[C@@H]1CCCN1C(=O)[C@@H]1CCCN1c1nccc(Nc2ccccc2)n1
Lowest inhibition? choose a or b Please identify the chosen entry by its label.
b

1: Nc1nc(Nc2ccc3ncsc3c2)cc(N2CCC[C@H]2C(=O)N[C@@H](CO)c2ccccc2)n1
2: CN(C)CC(C)(C)CNC(=O)[C@@H]1CCCN1c1nccc(Nc2ccccc2)n1
Param pair: 1 , 2 . Output: the one whose inhibition is numerically greater. Please identify the chosen entry by its label.
1

---

# MEASURED ON: Serine/threonine-protein kinase Chk1 (Homo sapiens)
# PROTOCOL DETAILS: Inhibition of CHK1 at 10 uM by HTRF assay relative to control
RESULT TYPE: inhibition (%)

Completed entries (count: 2):
Cc1cccc(Oc2ccnc(N3CCN(CC(=O)Nc4cccc5c4CCCC5)CC3)n2)c1 | 5
Clc1ccc2sc(CN3CCN(c4ncnc5c4CN(Cc4ccccc4)CC5)CC3)cc2c1 | 5

P: O=C(NC1Cc2ccccc2C1)c1cccc(Nc2ccnc(N3CCN(c4ccccc4)CC3)n2)c1
Q: Cc1cccc(N(C)c2cc(N3CCN(CC(=O)Nc4nc(-c5ccccc5)cs4)CC3)ncn2)c1
R: Cc1cccc(Nc2nccc(Nc3cccc(C(=O)NCc4ccc(N(C)C)cc4)c3)n2)c1
Which order do these items take when sorted by rising inhibition? List them. In your reply, arrange the labels in the requested order.
Q, P, R

---

# MEASURED ON: Protein-tyrosine kinase 6 (Homo sapiens) (UniProt Q13882)
# Sequence (Q13882 whole entry, looked up): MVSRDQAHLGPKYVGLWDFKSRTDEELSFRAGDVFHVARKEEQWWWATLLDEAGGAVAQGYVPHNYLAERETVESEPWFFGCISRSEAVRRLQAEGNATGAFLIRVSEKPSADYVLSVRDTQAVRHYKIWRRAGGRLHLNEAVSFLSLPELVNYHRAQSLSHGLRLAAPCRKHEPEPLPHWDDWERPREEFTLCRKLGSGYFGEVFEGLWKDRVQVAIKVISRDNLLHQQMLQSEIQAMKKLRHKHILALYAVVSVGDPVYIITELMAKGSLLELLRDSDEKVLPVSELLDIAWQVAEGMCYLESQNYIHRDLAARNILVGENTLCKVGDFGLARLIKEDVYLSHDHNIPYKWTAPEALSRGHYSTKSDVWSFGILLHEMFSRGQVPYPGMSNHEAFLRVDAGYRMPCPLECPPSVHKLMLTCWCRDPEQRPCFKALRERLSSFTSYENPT
# PROTOCOL DETAILS: Inhibition of Brk at 10 uM by HTRF assay relative to control
RESULT TYPE: inhibition (%)

Cc1cccc(Nc2nccc(Nc3cccc(C(=O)NCc4ccc(N(C)C)cc4)c3)n2)c1 | 33
Cc1cccc(CN2CCN(c3cc(N(C)c4cccc(C)c4)ncn3)CC2)c1 | 7

a: O=C(c1nc(SCc2ccc(Cl)cc2)n2ccccc12)N1CCN(c2ncnc3c2CN(Cc2ccccc2)CC3)CC1
b: Cc1cccc(Nc2nccc(Nc3cccc(C(=O)N(C)CCc4ccccn4)c3)n2)c1
c: COc1ccc(-c2noc(CN3CCN(c4cc(Nc5cccc(O)c5)ncn4)CC3)n2)cc1
Rank order required: inhibition, descending. In your reply, arrange the labels in the requested order.
b, a, c
(b: 36%, a: 9%, c: 5%)

---

# MEASURED ON: Mitogen-activated protein kinase 8 (Homo sapiens) (UniProt P45983)
# Sequence (P45983 whole entry): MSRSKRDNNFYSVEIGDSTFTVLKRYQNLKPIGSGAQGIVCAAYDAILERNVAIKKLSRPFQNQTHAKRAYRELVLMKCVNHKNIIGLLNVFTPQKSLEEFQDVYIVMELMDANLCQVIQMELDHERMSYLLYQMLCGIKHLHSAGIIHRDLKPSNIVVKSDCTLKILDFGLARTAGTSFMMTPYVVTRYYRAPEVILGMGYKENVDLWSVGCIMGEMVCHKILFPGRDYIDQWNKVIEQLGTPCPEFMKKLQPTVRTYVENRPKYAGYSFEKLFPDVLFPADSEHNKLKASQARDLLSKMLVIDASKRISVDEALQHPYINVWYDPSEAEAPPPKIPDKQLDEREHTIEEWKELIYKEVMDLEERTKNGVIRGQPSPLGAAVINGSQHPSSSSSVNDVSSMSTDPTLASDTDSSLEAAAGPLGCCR
# PROTOCOL DETAILS: Inhibition of JNK1 at 10 uM by HTRF assay relative to control
RESULT TYPE: inhibition (%)

A: COc1ccc(NC(=O)Cc2ccc(Nc3cc(N(C)c4cccc(C)c4)ncn3)cc2)cn1
B: Cc1cccc(N(C)c2cc(N3CCN(CC(=O)Nc4nc(-c5ccccc5)cs4)CC3)ncn2)c1
Lowest inhibition? choose A or B Please identify the chosen entry by its label.
B
(B: 0%, A: 4%)

---

# MEASURED ON: Receptor-type tyrosine-protein kinase FLT3 (Homo sapiens) (UniProt P36888)
# Sequence (P36888 whole entry): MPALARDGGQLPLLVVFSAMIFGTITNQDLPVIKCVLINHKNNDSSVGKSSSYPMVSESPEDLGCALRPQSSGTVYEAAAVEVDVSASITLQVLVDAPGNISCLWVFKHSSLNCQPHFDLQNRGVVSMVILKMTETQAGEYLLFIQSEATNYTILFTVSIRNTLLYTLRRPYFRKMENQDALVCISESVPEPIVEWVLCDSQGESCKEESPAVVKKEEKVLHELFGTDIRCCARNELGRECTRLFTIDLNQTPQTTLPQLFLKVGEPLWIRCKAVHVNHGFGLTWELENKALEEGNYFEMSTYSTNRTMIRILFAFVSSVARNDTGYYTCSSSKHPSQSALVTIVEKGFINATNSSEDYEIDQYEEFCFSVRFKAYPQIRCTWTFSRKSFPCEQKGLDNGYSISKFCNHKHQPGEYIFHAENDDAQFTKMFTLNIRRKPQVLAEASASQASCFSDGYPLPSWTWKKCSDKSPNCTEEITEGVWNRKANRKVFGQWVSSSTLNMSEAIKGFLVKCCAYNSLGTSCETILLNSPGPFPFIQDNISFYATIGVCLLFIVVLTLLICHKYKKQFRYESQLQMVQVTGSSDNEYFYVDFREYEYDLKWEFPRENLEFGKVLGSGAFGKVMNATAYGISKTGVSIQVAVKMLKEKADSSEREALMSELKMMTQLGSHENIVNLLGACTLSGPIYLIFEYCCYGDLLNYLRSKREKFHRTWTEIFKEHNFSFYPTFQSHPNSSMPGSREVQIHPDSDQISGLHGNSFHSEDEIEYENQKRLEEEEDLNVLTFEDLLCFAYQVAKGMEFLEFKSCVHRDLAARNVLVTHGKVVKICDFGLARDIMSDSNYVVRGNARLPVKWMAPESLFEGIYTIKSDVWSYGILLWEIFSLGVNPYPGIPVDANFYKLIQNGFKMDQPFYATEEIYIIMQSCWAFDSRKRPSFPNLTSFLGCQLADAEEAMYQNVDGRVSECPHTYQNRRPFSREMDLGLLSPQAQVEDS
# PROTOCOL DETAILS: Inhibition of FLT3 at 10 uM by HTRF assay relative to control
RESULT TYPE: inhibition (%)

Completed entries (count: 3):
Cc1cccc(Nc2cc(Nc3cccc(C(=O)N(CC(C)O)CC(C)O)c3)ncn2)c1 (stereo not given) | 27
Cc1cc(C(=O)N2CCN(c3ncnc4c3CN(Cc3ccccc3)CC4)CC2)c(C)n1C | 0
Clc1ccc2sc(CN3CCN(c4ncnc5c4CN(Cc4ccccc4)CC5)CC3)cc2c1 | 0

I: O=C(C1CCN(c2nccc(Nc3ccccc3)n2)CC1)N1CC[C@@H](O)C1
II: Cc1cccc(N(C)c2cc(Nc3cccc(C(=O)NCc4ccc(N(C)C)cc4)c3)ncn2)c1
Lowest inhibition? choose I or II Please identify the chosen entry by its label.
I
(I: 0%, II: 21%)

1: O=C(COc1ccccc1)N1CCN(c2nccc(Nc3ccc4ncsc4c3)n2)CC1
2: CC(=O)N1CCN(C(=O)c2cccc(Nc3cc(N(C)c4cccc(C)c4)ncn3)c2)CC1
3: CN(CCc1ccccn1)C(=O)c1cccc(Nc2nccc(Nc3ccc4ncsc4c3)n2)c1
Which order do these items take when sorted by rising inhibition? List them. In your reply, arrange the labels in the requested order.
1, 2, 3
(1: 0%, 2: 29%, 3: 98%)

1: Nc1nc(Nc2ccccc2)cc(N2CCC(C(=O)NCCc3ccccn3)CC2)n1
2: CN(C)CC(C)(C)CNC(=O)c1cccc(Nc2nccc(Nc3ccc4ncsc4c3)n2)c1
3: Cc1cccc(Nc2nccc(Nc3cccc(C(=O)NCc4ccc(N(C)C)cc4)c3)n2)c1
Rank order required: inhibition, descending. In your reply, arrange the labels in the requested order.
2, 3, 1
(2: 99%, 3: 54%, 1: 0%)

---

# MEASURED ON: Rho-associated protein kinase 2 (Homo sapiens)
# PROTOCOL DETAILS: Inhibition of ROCK2 at 10 uM by HTRF assay relative to control
RESULT TYPE: inhibition (%)

Completed entries (count: 5):
CN(C)c1ccc(C(=O)N2CCN(c3ncnc4c3CN(Cc3ccccc3)CC4)CC2)c2ccccc12 | 0
O=C(NC[C@@H]1CCCO1)c1cccc(Nc2nccc(Nc3ccc4ncsc4c3)n2)c1 | 19
CN(C)CC(C)(C)CNC(=O)[C@@H]1CCCN1c1nccc(Nc2ccccc2)n1 | 0
CC(=O)CCCCC(=O)N1CCN(c2nccc(Oc3cccc(C)c3)n2)CC1 | 0
CN(C)CC(C)(C)CNC(=O)c1cccc(Nc2nccc(Nc3ccc4ncsc4c3)n2)c1 | 29

a: CN(CCCn1ccnc1)C(=O)[C@@H]1CCCN1c1nccc(Nc2ccccc2)n1
b: COC[C@@H]1CCCN1C(=O)C1CCCN1c1cc(Nc2cccc(Br)c2)ncn1 (stereo not given in full)
Param pair: a , b . Output: the one whose inhibition is numerically greater. Please identify the chosen entry by its label.
a

A: O=C(c1nc(SCc2ccc(Cl)cc2)n2ccccc12)N1CCN(c2cc(Nc3cccc(Br)c3)ncn2)CC1
B: Nc1nc(N2CCOCC2)cc(N2CCC(C(=O)NCc3cccs3)CC2)n1
Lowest inhibition? choose A or B Please identify the chosen entry by its label.
A
(A: 0%, B: 1%)

---

# MEASURED ON: Cyclin-dependent kinase 2 (Homo sapiens)
# PROTOCOL DETAILS: Inhibition of CDK2 at 10 uM by HTRF assay relative to control
RESULT TYPE: inhibition (%)

Completed entries (count: 5):
Cc1cc(C(=O)N2CCN(c3ncnc4c3CN(Cc3ccccc3)CC4)CC2)c(C)n1C | 3
COC[C@@H]1CCCN1C(=O)[C@@H]1CCCN1c1cc(Nc2cccc(OC)c2)nc(N)n1 | 7
Cc1cccc(Nc2nccc(Nc3cccc(C(=O)NCc4ccc(N(C)C)cc4)c3)n2)c1 | 1
O=C(C1CCN(c2nccc(Nc3ccccc3)n2)CC1)N1CC[C@@H](O)C1 | 5
COC(=O)C(CO)NC(=O)[C@@H]1CCCN1c1nccc(Oc2cccc(C)c2)n1 (some centres undefined) | 6

a: Clc1ccc2sc(CN3CCN(c4ncnc5c4CN(Cc4ccccc4)CC5)CC3)cc2c1
b: COc1cccc(Nc2cc(Nc3cccc(C(=O)NCCCn4ccnc4)c3)nc(N)n2)c1
c: CC(=O)N1CCN(C(=O)c2cccc(Nc3cc(N(C)c4cccc(C)c4)ncn3)c2)CC1
d: O=C(c1nc(SCc2ccc(Cl)cc2)n2ccccc12)N1CCN(c2ncnc3c2CN(Cc2ccccc2)CC3)CC1
e: CN(CCc1ccccn1)C(=O)[C@@H]1CCCN1c1nccc(Nc2ccccc2)n1
Which order do these items take when sorted by rising inhibition? List them. In your reply, arrange the labels in the requested order.
d, b, e, c, a
(d: 0%, b: 2%, e: 5%, c: 9%, a: 16%)

a: Cc1cccc(N(C)c2cc(Nc3cccc(C(=O)NCCCn4ccnc4)c3)ncn2)c1
b: Nc1nc(Nc2ccc(C(=O)NCCc3ccncc3)cc2)cc(N2CCOCC2)n1
Lowest inhibition? choose a or b Please identify the chosen entry by its label.
b

1: CN(CCc1ccccn1)C(=O)c1cccc(Nc2nccc(Nc3ccc4ncsc4c3)n2)c1
2: Cc1cccc(N(C)c2cc(N3CCN(CC(=O)Nc4nc(-c5ccccc5)cs4)CC3)ncn2)c1
Lowest inhibition? choose 1 or 2 Please identify the chosen entry by its label.
2

a: Cc1cccc(N(C)c2cc(Nc3cccc(C(=O)N4CCCC5CCCCC54)c3)ncn2)c1 (centres undefined)
b: Cc1cccc(N(C)c2cc(Nc3cccc(C(=O)N(C)CCc4ccccn4)c3)ncn2)c1
c: CC(=O)CCCCC(=O)N1CCN(c2nccc(Oc3cccc(C)c3)n2)CC1
Rank order required: inhibition, descending. In your reply, arrange the labels in the requested order.
b, c, a

a: O=C(c1nc(SCc2ccc(Cl)cc2)n2ccccc12)N1CCN(c2cc(Nc3cccc(Br)c3)ncn2)CC1
b: Cc1cccc(Oc2ccnc(N3CCC[C@H]3C(=O)NCCCn3ccnc3)n2)c1
c: CN(C)CC(C)(C)CNC(=O)c1cccc(Nc2nccc(Nc3ccc4ncsc4c3)n2)c1
d: Nc1nc(Nc2ccc3ncsc3c2)cc(N2CCC[C@H]2C(=O)N[C@@H](CO)c2ccccc2)n1
Rank order required: inhibition, descending. In your reply, arrange the labels in the requested order.
c, a, b, d

A: Nc1nc(Nc2ccc3ncsc3c2)cc(N2CCC[C@H]2C(=O)NCCc2cccc(I)c2)n1
B: Cc1cccc(Nc2cc(Nc3cccc(C(=O)N(CC(C)O)CC(C)O)c3)ncn2)c1 (centres undefined)
Param pair: A , B . Output: the one whose inhibition is numerically greater. Please identify the chosen entry by its label.
A
(A: 5%, B: 3%)

P: COc1ccc(-c2noc(CN3CCN(c4cc(Nc5cccc(O)c5)ncn4)CC3)n2)cc1
Q: O=C(NCc1cccnc1)c1cccc(-c2ccc(Nc3ccc4ncsc4c3)nn2)c1
Lowest inhibition? choose P or Q Please identify the chosen entry by its label.
Q
(Q: 0%, P: 6%)

a: Cc1cccc(N(C)c2cc(Nc3cccc(C(=O)N(CC(C)C)CC(C)C)c3)ncn2)c1
b: Cc1cccc(N(C)c2cc(Nc3ccc(CC(=O)Nc4ccc5ncsc5c4)cc3)ncn2)c1
c: COc1cccc(Nc2cc(N3CCC[C@H]3C(=O)NCCN3CCCCC3)nc(N)n2)c1
Rank order required: inhibition, descending. In your reply, arrange the labels in the requested order.
c, a, b
(c: 12%, a: 6%, b: 4%)
